Test system: HeLa cells
MEASUREMENT_NOTES: In vitro expression of firefly luciferase (Fluc) after treatment with Fluc mRNA/amino lipidated peptoid formulations, no PEG or 2% DMG-PEG2000
Format: cell-based
EXPERIMENTAL_PARAMETERS: with 2% (w/w) DMG-PEG2000, peptoid:mRNA 5:1, 6 h after treatment
As shown below, each of these molecules has a reported Luciferase Expression (RLU) 6 h value.
Just the number please, in RLU, no unit attached.

Below, each entry is followed by its recorded Luciferase Expression (RLU) 6 h result.
SMI | QUANTITY | VALUE
CCCCCCCCCCN(CC(N)=O)C(=O)CN(CCCCCCCCCC)C(=O)CN(CCCCCCCCCC)C(=O)CN(CCCCCCCCCC)C(=O)CN(CCc1ccccc1)C(=O)CN(CCc1ccccc1)C(=O)CN(CC1CCNCC1)C(=O)CN(CCc1ccccc1)C(=O)CN(CCc1ccccc1)C(=O)CN(CC1CCNCC1)C(=O)CN(CCc1ccccc1)C(=O)CN(CCc1ccccc1)C(=O)CN(CC1CCNCC1)C(=O)CN(CCc1ccccc1)C(=O)CN(CCc1ccccc1)C(=O)CNCC1CCNCC1 | Luciferase Expression (RLU) 6 h | 4.82E+02
CCCCCCCCCCN(CC(N)=O)C(=O)CN(CCc1ccccc1)C(=O)CN(CCc1ccccc1)C(=O)CN(CCN)C(=O)CN(CCc1ccccc1)C(=O)CN(CCc1ccccc1)C(=O)CN(CCN)C(=O)CN(CCc1ccccc1)C(=O)CN(CCc1ccccc1)C(=O)CNCCN | Luciferase Expression (RLU) 6 h | 1.38E+02

Please examine the following record next.
# lookup: Luciferase Expression (RLU) 6 h of CCCCCCCCCCN(CC(N)=O)C(=O)CN(CCCCCCCCCC)C(=O)CN(CCCCCCCCCC)C(=O)CN(CCCCCCCCCC)C(=O)CN(CCCCCCCCCC)C(=O)CN(CCc1ccccc1)C(=O)CN(CCc1ccccc1)C(=O)CN(CCN)C(=O)CN(CCc1ccccc1)C(=O)CN(CCc1ccccc1)C(=O)CNCCN
1.75E+04

----------
MEASUREMENT_NOTES: MTT viability assay after treatment with Fluc mRNA/amino lipidated peptoid formulations
Format: cell-based
EXPERIMENTAL_PARAMETERS: human, HeLa cells, Relative Viability (%) 2% PEG
As shown below, each of these compounds has a reported viability at 8 h, 500 ng/well value.
Just the number please, in %, no unit attached.

Below, each entry is followed by its recorded viability at 8 h, 500 ng/well result.
SMI | viability at 8 h, 500 ng/well [%]
CCCCCCCCCCN(CC(=O)N(CCN)CC(=O)N(CCc1ccccc1)CC(=O)N(CCc1ccccc1)CC(=O)N(CCCCCCCCCC)CC(=O)N(CCN)CC(=O)N(CCc1ccccc1)CC(=O)N(CCc1ccccc1)CC(N)=O)C(=O)CN(CCc1ccccc1)C(=O)CN(CCc1ccccc1)C(=O)CNCCN | 91.7
CCCCCCCCCCN(CC(N)=O)C(=O)CN(CCCCCCCCCC)C(=O)CN(CCCCCCCCCC)C(=O)CN(CCCCCCCCCC)C(=O)CN(CCc1ccccc1)C(=O)CN(CCc1ccccc1)C(=O)CN(CCNC)C(=O)CN(CCc1ccccc1)C(=O)CN(CCc1ccccc1)C(=O)CN(CCNC)C(=O)CN(CCc1ccccc1)C(=O)CN(CCc1ccccc1)C(=O)CNCCNC | 85.9

Please examine the following record next.
# lookup: viability at 8 h, 500 ng/well of CCCCCCCCCCN(CC(N)=O)C(=O)CN(CCCCCCCCCC)C(=O)CN(CCc1ccccc1)C(=O)CN(CCc1ccccc1)C(=O)CN(CCNC)C(=O)CN(CCc1ccccc1)C(=O)CN(CCc1ccccc1)C(=O)CN(CCNC)C(=O)CN(CCc1ccccc1)C(=O)CN(CCc1ccccc1)C(=O)CNCCNC
91.1

----------
MEASUREMENT_NOTES: MTT viability assay after treatment with Fluc mRNA/amino lipidated peptoid formulations
Format: cell-based
EXPERIMENTAL_PARAMETERS: human, HeLa cells, Relative Viability (%) 2% PEG
QUANTITY: viability at 8 h, 500 ng/well (%)
Just the number please, in %, no unit attached.

# lookup: viability at 8 h, 500 ng/well of CCCCCCCCCCN(CC(N)=O)C(=O)CN(CCCCCCCCCC)C(=O)CN(CCCCCCCCCC)C(=O)CN(CCCCCCCCCC)C(=O)CN(CCc1ccccc1)C(=O)CN(CCc1ccccc1)C(=O)CN(CC1CCCN1)C(=O)CN(CCc1ccccc1)C(=O)CN(CCc1ccccc1)C(=O)CN(CC1CCCN1)C(=O)CN(CCc1ccccc1)C(=O)CN(CCc1ccccc1)C(=O)CN(CC1CCCN1)C(=O)CN(CCc1ccccc1)C(=O)CN(CCc1ccccc1)C(=O)CNCC1CCCN1 (stereo not drawn) [Compound 35]
105

# lookup: viability at 8 h, 500 ng/well of CCCCCCCCCCN(CC(N)=O)C(=O)CN(CCCCCCCCCC)C(=O)CN(CCc1ccccc1)C(=O)CN(CCc1ccccc1)C(=O)CN(CCN)C(=O)CN(CCc1ccccc1)C(=O)CN(CCc1ccccc1)C(=O)CN(CCN)C(=O)CN(CCc1ccccc1)C(=O)CN(CCc1ccccc1)C(=O)CN(CCN)C(=O)CN(CCc1ccccc1)C(=O)CN(CCc1ccccc1)C(=O)CN(CCN)C(=O)CN(CCc1ccccc1)C(=O)CN(CCc1ccccc1)C(=O)CNCCN [Compound 12]
104

# lookup: viability at 8 h, 500 ng/well of CCCCCCCCCCN(CC(N)=O)C(=O)CN(CCCCCCCCCC)C(=O)CN(CCN)C(=O)CN(CCN)C(=O)CN(CCN)C(=O)CN(CCN)C(=O)CN(CCN)C(=O)CN(CCN)C(=O)CN(CCN)C(=O)CN(CCN)C(=O)CNCCN [Compound 16]
90.8

----------
MEASUREMENT_NOTES: mRNA encapsulation by fluorescence of Qubit RNA HS dye before and after lysis with Triton X-100
Type: physicochemical
EXPERIMENTAL_PARAMETERS: percentage of mRNA encapsulation; Fluc mRNA/peptoid formulation, 5:1 mass ratio
As shown below, each of these molecules has a reported % Encapsulation value.
Just the number please, in %, no unit attached.

MOLECULE | UNIT_ABBREVIATION | VALUE
CCCCCCCCCCN(CC(N)=O)C(=O)CN(CCCCCCCCCC)C(=O)CN(CCCCCCCCCC)C(=O)CN(CCCCCCCCCC)C(=O)CN(CCc1ccccc1)C(=O)CN(CCc1ccccc1)C(=O)CN(CCNC)C(=O)CN(CCc1ccccc1)C(=O)CN(CCc1ccccc1)C(=O)CN(CCNC)C(=O)CN(CCc1ccccc1)C(=O)CN(CCc1ccccc1)C(=O)CN(CCNC)C(=O)CN(CCc1ccccc1)C(=O)CN(CCc1ccccc1)C(=O)CNCCNC [Compound 26] | % | 35.7

# lookup: % Encapsulation of CCCCCCCCCCN(CC(N)=O)C(=O)CN(CCCCCCCCCC)C(=O)CN(CCc1ccccc1)C(=O)CN(CCc1ccccc1)C(=O)CN(CCCN)C(=O)CN(CCc1ccccc1)C(=O)CN(CCc1ccccc1)C(=O)CN(CCCN)C(=O)CN(CCc1ccccc1)C(=O)CN(CCc1ccccc1)C(=O)CNCCCN [Compound 30]
8.4

# lookup: % Encapsulation of CCCCCCCCCCN(CC(N)=O)C(=O)CN(CCCCCCCCCC)C(=O)CN(CCN)C(=O)CN(CCN)C(=O)CNCCN [Compound 14]
77.3

# lookup: % Encapsulation of CCCCCCCCCCCCN(CC(N)=O)C(=O)CN(CCCCCCCCCCCC)C(=O)CN(CCc1ccc(OC)cc1)C(=O)CN(CCc1ccc(OC)cc1)C(=O)CN(CCN)C(=O)CN(CCc1ccc(OC)cc1)C(=O)CN(CCc1ccc(OC)cc1)C(=O)CN(CCN)C(=O)CN(CCc1ccc(OC)cc1)C(=O)CN(CCc1ccc(OC)cc1)C(=O)CNCCN [Compound 4]
99.0

----------
System: HeLa cells
MEASUREMENT_NOTES: In vitro expression of firefly luciferase (Fluc) after treatment with Fluc mRNA/amino lipidated peptoid formulations, no PEG or 2% DMG-PEG2000
Assay type: cell-based
EXPERIMENTAL_PARAMETERS: no PEG, peptoid:Fluc mRNA 5:1 w/w, 100 ng/well, 6 h of treatment
QUANTITY: Luciferase Expression (RLU) 6 h
Just the number please, in RLU, no unit attached.

SMI | Luciferase Expression (RLU) 6 h
CCCCCCCCCCN(CC(N)=O)C(=O)CN(CCCCCCCCCC)C(=O)CN(CCCCCCCCCC)C(=O)CN(CCCCCCCCCC)C(=O)CN(CCc1ccccc1)C(=O)CN(CCc1ccccc1)C(=O)CN(CCNC)C(=O)CN(CCc1ccccc1)C(=O)CN(CCc1ccccc1)C(=O)CN(CCNC)C(=O)CN(CCc1ccccc1)C(=O)CN(CCc1ccccc1)C(=O)CN(CCNC)C(=O)CN(CCc1ccccc1)C(=O)CN(CCc1ccccc1)C(=O)CNCCNC | 5.00E+00

# lookup: Luciferase Expression (RLU) 6 h of CCCCCCCCCCN(CC(N)=O)C(=O)CN(CCCCCCCCCC)C(=O)CN(CCc1ccccc1)C(=O)CN(CCc1ccccc1)C(=O)CN(CCCN)C(=O)CN(CCc1ccccc1)C(=O)CN(CCc1ccccc1)C(=O)CN(CCCN)C(=O)CN(CCc1ccccc1)C(=O)CN(CCc1ccccc1)C(=O)CNCCCN
2.79E+03

# lookup: Luciferase Expression (RLU) 6 h of CCCCCCCCCCNCC(=O)N(CCN)CC(=O)N(CCc1ccccc1)CC(=O)N(CCc1ccccc1)CC(=O)N(CCN)CC(=O)N(CCc1ccccc1)CC(=O)N(CCc1ccccc1)CC(=O)N(CCN)CC(=O)N(CCc1ccccc1)CC(=O)N(CCc1ccccc1)CC(=O)N(CCCCCCCCCC)CC(N)=O
5.74E+02

Values compiled from patent US20220323594A1.
